pIC50 for assorted compounds
Assay: Inhibition of full length HIV reverse transcriptase polymerase activity
Set-up: species or system Human immunodeficiency virus
Convention used: pIC50 is expressed as -log10 of the molar concentration.

>>> reported_measurement("O=C1Cc2cc(-c3ccc(F)c(F)c3)ccc2C(=O)N1O")
5.68

Problem: Dear colleague, I am looking for the recorded pIC50 of the following compound: "O=C1Cc2ccc(-c3ccc(F)c(F)c3)cc2C(=O)N1O"
Solution: 5.55

Problem: Using the record for "O=C1Cc2c(Cc3ccc(Br)cc3)cccc2C(=O)N1O" , report its pIC50.
Solution: 5.85

Problem: May I ask what pIC50 has been recorded for "O=C1Cc2ccc(-c3cc4ccccc4o3)cc2C(=O)N1O" ?
Solution: 5.80

====

Assay: Inhibition of full length HIV RT-RNase H activity using 18-nucleotide 3'-fluorescein-labeled RNA/5'-dabsyl-labeled DNA hybrid as substrate
Design: species or system Human immunodeficiency virus
parameter: pIC50
Entry type: numeric. Quantity: pIC50, the -log10 of concentration in molar units.

Observe how each entry below is paired with its result.
>>> reported_measurement("O=C1Cc2ccc(-c3ccc(F)c(F)c3)cc2C(=O)N1O")
5.70
>>> reported_measurement("O=C(Nc1ccc2c(c1)CC(=O)N(O)C2=O)c1ccccc1")
6.70
>>> reported_measurement("O=C1Cc2cc(-c3cccc4c3sc3ccccc34)ccc2C(=O)N1O")
5.74

Problem: Consider the compound shown here: "COc1cc2c(cc1-c1ccc(F)cc1)CC(=O)N(O)C2=O" What is its recorded pIC50?
Solution: 5.85

Problem: What measured pIC50 goes with "O=C1Cc2ccc(I)cc2C(=O)N1O" ?
Solution: 5.85

Problem: What value of measured pIC50 is listed for "O=C1Cc2ccc(-c3cc4ccccc4o3)cc2C(=O)N1O" ?
Solution: 6.05

Problem: # input compound: "O=C1Cc2c(cccc2-c2ccccc2)C(=O)N1O" ; wanted: its pIC50
Solution: 5.85

Problem: pIC50 for "O=C1Cc2ccc(-c3ccco3)cc2C(=O)N1O" ?
Solution: 5.92

====

Assay: Inhibition of full length HIV reverse transcriptase polymerase activity
Design: species or system Human immunodeficiency virus
parameter: pIC50
Hey, just a heads up that pIC50 is the negative log base 10 of the concentration in molar.

Example entries begin here.
>>> reported_measurement("O=C1Cc2cc(-c3ccoc3)ccc2C(=O)N1O")
5.70
>>> reported_measurement("COc1cc2c(cc1-c1ccccc1)CC(=O)N(O)C2=O")
5.09
>>> reported_measurement("Cc1ccc(Cc2cccc3c2CC(=O)N(O)C3=O)cc1")
5.10
>>> reported_measurement("COc1cc2c(cc1-c1ccco1)CC(=O)N(O)C2=O")
5.21
>>> reported_measurement("O=C(Cc1ccccc1)Nc1ccc2c(c1)CC(=O)N(O)C2=O")
5.85
>>> reported_measurement("O=C1Cc2cc(-c3ccco3)ccc2C(=O)N1O")
5.82
>>> reported_measurement("O=C(Nc1ccc2c(c1)CC(=O)N(O)C2=O)c1ccc(F)cc1")
6.10
>>> reported_measurement("O=C1Cc2ccc(I)cc2C(=O)N1O")
5.72
>>> reported_measurement("O=C(Cc1ccc(F)cc1)Nc1ccc2c(c1)CC(=O)N(O)C2=O")
5.77
>>> reported_measurement("O=C1Cc2cc(-c3cccc4c3sc3ccccc34)ccc2C(=O)N1O")
5.80

Problem: Could you tell me which pIC50 is on file for "O=C1Cc2c(Cc3ccc(C(F)(F)F)cc3)cccc2C(=O)N1O" ?
Solution: 5.13

Problem: I have this molecule here, "O=C1Cc2ccc(-c3ccco3)cc2C(=O)N1O" , and I need its recorded pIC50.
Solution: 5.89

Problem: Recorded pIC50 for "COc1cc2c(cc1-c1ccc(F)cc1)CC(=O)N(O)C2=O" , please?
Solution: 5.43

Problem: State the recorded pIC50 for this entry: "O=C1Cc2cc(-c3csc4ccccc34)ccc2C(=O)N1O"
Solution: 5.89

Problem: Fill in the blank: the reported pIC50 of "O=C1Cc2c(cccc2-c2ccc(F)cc2F)C(=O)N1O" is ____.
Solution: 4.60
